system: T lymphocytes; assay: Inhibition of proliferation of PHA-stimulated T lymphocytes (tritium thymidine incorporation); format: cell-based; settings: Homo sapiens, T-lymphocyte, 1 μg/ml Phytohemagglutinine, 48 hours, test compounds 0.1-250 μM, read-out: T cells IC50
Quick list: IC50 per entry.

{"columns": ["compound", "systemName", "valuePrefix", "IC50, µM"],
 "data": [
  ["C[C@@H]1CN(C(=O)CC(O)C(N)Cc2ccccc2)C[C@H](C)N1C(=O)CC(N)Cc1ccccc1 (stereo partly shown) [drawing 225]", "T lymphocytes", "=", 147],
  ["CCCCCCCCCCCCCC(=O)OC(C(=O)NCC(C)(C)CNC(=O)CC(N)Cc1cc(F)ccc1F)C(N)Cc1ccccc1 (stereo not shown) [drawing 252]", "T lymphocytes", "=", 2],
  ["NC(CC(=O)Nc1cccc(NC(=O)C(O)C(N)Cc2ccccc2)c1)Cc1cc(F)ccc1F (stereo not shown) [drawing 270]", "T lymphocytes", "=", 9.4],
  ["CN(CCCNC(=O)CC(N)Cc1cc(F)ccc1F)C(=O)C(O)C(N)Cc1ccccc1 (stereo not shown) [drawing 246]", "T lymphocytes", "≥", 200],
  ["NC(CC(=O)NCCCCNC(=O)C(O)C(N)Cc1ccccc1)C(=O)N1CCSC1 (stereo not shown) [drawing 248]", "T lymphocytes", "=", 35.2],
  ["CCCCCCCCCCCCCCCC(=O)OC(C(=O)NCCCCNC(=O)CC(N)Cc1cc(F)ccc1F)C(N)Cc1ccccc1 (stereo not shown) [drawing 259]", "T lymphocytes", "=", 4.1],
  ["NC(CC(=O)NCCCCNC(=O)C(O)C(N)Cc1ccc(Br)cc1)Cc1cc(F)ccc1F (stereo not shown) [drawing 267]", "T lymphocytes", "=", 58.1],
  ["CC(C)(CNC(=O)CC(N)Cc1cc(F)ccc1F)CNC(=O)C1OC(=O)NC1Cc1ccc(-c2ccccc2)cc1 (stereo not shown) [drawing 275]", "T lymphocytes", "=", 139],
  ["CC(C)(CNC(=O)CC(N)Cc1cc(F)ccc1F)CNC(=O)C(O)C(N)Cc1ccc(-c2cccnc2)cc1 (stereo not shown) [drawing 282]", "T lymphocytes", "=", 64.9],
  ["NC(CC(=O)NC1CCCC(NC(=O)C(O)C(N)Cc2ccccc2)C1)Cc1cc(F)ccc1F (stereo not shown) [drawing 269]", "T lymphocytes", "=", 113],
  ["NC(CC(=O)NCC1(CNC(=O)C(O)C(N)Cc2ccccc2)CCCC1)Cc1cc(F)ccc1F (stereo not shown) [drawing 274]", "T lymphocytes", "=", 12.9],
  ["NC(CC(=O)N1CCN(C(=O)CC(O)C(N)Cc2ccccc2)CC1)Cc1ccccc1 (stereo not shown) [drawing 222]", "T lymphocytes", "=", 157],
  ["NC(CC(=O)NCC1(CNC(=O)C(O)C(N)Cc2ccccc2)CCCCC1)Cc1cc(F)ccc1F (stereo not shown) [drawing 273]", "T lymphocytes", "=", 7],
  ["NC(CC(=O)NCC1(CNC(=O)C(O)C(N)Cc2ccccc2)CCC1)Cc1ccccc1 (stereo not shown) [drawing 235]", "T lymphocytes", "=", 157],
  ["CN(CCCNC(=O)C(O)C(N)Cc1ccccc1)C(=O)CC(N)Cc1cc(F)ccc1F (stereo not shown) [drawing 243]", "T lymphocytes", "≥", 200],
  ["CN(CCCNC(=O)OCc1ccccc1)C(=O)C(O)C(N)Cc1ccccc1 (stereo not shown) [drawing 278]", "T lymphocytes", "≥", 200]
]}
